I'd be grateful if you could share measured TGI for these entries.
- Tested on: MOLT-4 leukemia
- test_name: NCI tumour cell line growth inhibition, 48 h

// TGI lookup, compound = Cc1cccc(C(C)(C)C)c1NC(=O)CC1C(=O)Nc2ccccc2S1=O (stereo unspecified) , result: 69.2 µM

// field: TGI; key: O=c1cc(-c2ccc(O)c(O)c2)oc2cc(OC3OC(CO)C(O)C(O)C3O)cc(O)c12 (stereo unspecified) ; value = > 100 µM

// recorded TGI for C/C(C=O)=N\Nc1cc(C)c2ccccc2n1 : 36.8 µM

Item: O=C(CNC(=O)OCc1ccccc1)NCCCCC(NC(=O)OCc1ccccc1)C(=O)O (stereo unspecified) | TGI: > 100 µM

Lab note: COc1ccc2c(c1)c(Cc1c(C)n(C)c3ccc(OC)cc13)c(C)n2C gave TGI of > 100 µM

TGI reported for this compound O=[N+]([O-])c1ccc(Cc2nc3ccccc3s2)cc1 : > 100 µM

compound CCOC(=O)CNC(=O)C(CSC(=O)N(O)c1ccc(Br)cc1)NC(=O)CCC(N)C(=O)OCC (stereo unspecified) , TGI observed: > 50 µM

Measured TGI of COc1ccc2c(OC)c3ccoc3nc2c1O : > 100 µM

Lab book: TGI of CCCCCCCCCCCCCCCC(=O)NC1CCc2cc(O)c(O)c(O)c2-c2ccc(SC)c(=O)cc21 (stereo unspecified) noted as > 71.8 µM

According to the records, this compound COc1ccc(NS(=O)CCc2ccccc2)cc1 (stereo unspecified) displays TGI of > 100 µM

Input CSc1nc(=S)[nH]c2n[nH]c(C)c12 . Output TGI: > 100 µM

Source of measurements: PubChem BioAssay (NCI)
